Hello, the source for this data is PubChem BioAssay (NCI), in case you need it.

Reported growth inhibition values are given for each entry in this list.
- procedure-details: NCI Yeast Anticancer Drug Screen. Data for the rad50 strain (AID 155);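 note: 0% = growth of vehicle-only cultures of the same strain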
- protocol-conditions: S. cerevisiae rad50 strain growth inhibition; at 50.0 µM; stronger effect = higher value
This is part of a sample that, as a whole, favours compounds with a hit. Of some 79,000 tested, about 15% had one in any assay.
Express it in %; write the number only.

In [3]: df
Out[3]:
                                   compound         value_type  value_measured
0  CC(=O)OC1(C#N)CC2OC1C1NC21 (configuration not stated)  growth inhibition             5.7
1  C[C@]12CC[C@H]3[C@@H](CCC4=CC(=O)CC[C@@H]43)[C@@H]1CC[C@@H]2OC(=O)N(CCCl)N=O  growth inhibition            84.8
2               COP(=O)(OC)C(=O)c1ccc(C)cc1  growth inhibition            14.7
3  CC1(C)N=C(N)N=C(N)N1c1ccc(OCC(=O)Nc2cccc(S(=O)(=O)F)c2)c(Cl)c1  growth inhibition            70.5
4                     CN(N=O)C(=O)NC1CCCCC1  growth inhibition           -18.6
5  N#C[S-].[La+3].c1ccc(-c2ccccn2)nc1.c1ccc(-c2ccccn2)nc1.c1ccc(-c2ccccn2)nc1  growth inhibition            91.5

In: Any idea what growth inhibition was measured for `COC1=CC(=Nc2ccc(N(CCCl)CCCl)cc2)C=CC1=O` ?
Out: 17.6

In: Entry under review: CN1CN(c2ccccc2)C2(CCN(CC(C)(c3ccc(F)cc3)C3OCCCO3)CC2)C1=O (configuration not stated) . Reported growth inhibition?
Out: -22.9

In: Would you mind telling me what growth inhibition value was observed for C[N+](C)(C)CC1CCCCCCCCCCC1=O (configuration not stated) ?
Out: -4.85

In: Requested field: growth inhibition. Item: `O=C(N/N=C/c1cc(Br)cc(Br)c1[O-])c1ccccc1O.O=C(N/N=C/c1cc(Br)cc(Br)c1[O-])c1ccccc1O.[Fe+2]`
Out: 20.4

In: // returns reported growth inhibition for input `Cc1cccc(C=NCCOCCOCCN=Cc2cccc(C)c2O)c1O.[Ni]`
Out: -8.3

----------
- procedure-details: NCI Yeast Anticancer Drug Screen. Data for the bub3 strain (AID 167)
- protocol-conditions: S. cerevisiae bub3 mutant strain, at 50.0 µM
This is part of a sample that, as a whole, favours compounds with a hit. Of some 79,000 tested, about 15% had one in any assay. Active and inactive are the calls of the source. Rule as the data show it: active = growth inhibition above about 70%; inactive = the rest.
Choose one outcome from this list and give only that: y = active, n = inactive

compound	class-name
C#CC1(OC(C)=O)CCC2C3CC=C4C=C(OC(C)=O)CCC4(C)C3CCC21C (centres undefined)	n
CP(C)C.[Ag][I]	n
CCOC(=O)/C(=C\c1ccc(C(F)(F)F)cc1)[Se]c1ccccc1	n
CCOC(=O)C1C(=O)C(=O)N2CCc3c([nH]c4ccccc34)C12 (centres undefined)	n
Cc1ccc(N=P(c2ccccc2)(c2ccccc2)c2ccccc2)cc1.[Br][Hg][Br]	y
O=C(CCl)Oc1ccccc1Cl	n
Nc1ccccc1C(=O)O	n
Nc1ccc(/C=C/C(=O)Nc2ccc(S(=O)(=O)F)cc2)cc1	y
CC1=C(O)C(=O)[C@@H]2O[C@@H]2C1=O	n
NC(N)=NCCCCCCCCCCN=C(N)N	n

In: What did this assay record as the result for CCCCOC(=O)C(O)CF (centres undefined) ?
Out: n

In: What did this assay record as the result for COc1cccc(C)c1C1CC2CCCN2O1 (centres undefined) ?
Out: n

In: Please indicate how the test categorized `COC(=O)Nc1nc2ccccc2[nH]1` .
Out: n

In: # lookup: test call for `CCC1(CCNC(=O)CNC(C)=O)C(=O)NC(=O)NC1=O`
Out: n

In: Just curious, what result did CN1C(=O)C(C)(C2=CCCCC2)C(=O)NC1=S (centres undefined) get here?
Out: n
